molecular target: T1, 127-140aa; experiment: indirect ELISA on biotinylated 15-mer peptide, supernatant 1/100
T1 peptide: {Biotin-Ahx}-MPSEEGYQDYEPEA
Where no end group is shown, it is not given here. The star is where a group is joined. Biotin = O=C1N[C@H]2[C@H](CS[C@H]2CCCCC(=O)*)N1; Ahx = NCCCCCC(=O)O
reportedMetric: binding result

ACI-7079-2603F3-Ab1 (antibody, V domains shown, mouse hybridoma mAb; VH/VL only; also called 2603F3H3) VH: EVQLVESGGGLVQPKGSLKLSCAASGFTFNTYAMHWVRQAPGKGLEWVARIRSKGSNYATYYADSVKDRFTISRDDSQSMLYLQMNNLKTEDTAMYYCVRGGGDSWFAYWGQGTLVTVSA VL: QIVLTQSPAIMSASPGERVTMTCTASSSVSYMHWYQQKSGTSPKRWIYDTSKLASGVPARFSGSGSGASYTLTISSMEAEDAATYYCQQWNSNPPTFGGGTQLAIK : binds
